Assignment: determine reported fraction ligated for the given variants.
B1: minF1; a variant is named by its letters at N, in order (parent)
chain: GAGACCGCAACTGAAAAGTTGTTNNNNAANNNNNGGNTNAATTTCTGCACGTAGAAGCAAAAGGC

Variants of: B1
Test: fraction ligated after 30 min (ligated reads / total reads); higher = more ligase activity
Conditions: with F1*subA RNA substrate (template-directed ligation), 42 °C

Take a look at these entries with their results.
ATAATGGATGT :: 0.00257
ATAGTGGATTG :: 0.00612
ATCGATGGTGT A40G :: 0.0134
TCAGATGGATG T23A :: 0.00344
ATCAAATATGT A28G :: 0.00373

Batch request: fraction ligated per item, same order as input.
1. ATCAAAGGTGT A28G
2. TCAGAGATGTG
3. TCAATGATGTG T23A
4. TCAGATATGTG T23A
5. ATCAAAGGAGT A28G G35T A40G
6. TCAGGGATGTG A29T
7. ATGATGGTGTG
8. TCGAGGATGTG T23A A29T

Solution:
[0.00198, 0.00161, 0.00128, 0.000828, 0.00529, 0.00613, 0.00304, 0.013]

The measured values listed here are drawn from the supplement of paper PMC6755084.
